# Test system: ACHN renal
# ASSAY_COMMENT: NCI tumour cell line growth inhibition, 48 h
READOUT_TYPE: GI50

N#Cc1c(N/N=C\c2ccc(Cl)cc2)nc(N)nc1N1CCOCC1; 23.1 µM

Quick check: GI50 on ACHN renal, item COc1cc(CCC(=O)NC[C@@H](O)c2ccccc2)ccc1O ?
> 100 µM

What do you have for Cn1c(-c2c(N)n(Cc3ccc(F)cc3)c3nc(C#N)c(C#N)nc23)nc2ccccc21 ?
0.829 µM

----------
Listed here: items and their measured TGI.
# System: MALME-3M melanoma
# ASSAY_COMMENT: NCI tumour cell line growth inhibition, 48 h
The reply should be a number in µM, with the unit left off.

Form field: reported TGI of COc1cc(/C=C/C(=O)c2c(-c3ccc(F)cc3)nc3sc(C)nn23)cc(OC)c1OC
16.9

----------
# Test system: RPMI-8226 leukemia
# ASSAY_COMMENT: NCI tumour cell line growth inhibition, 48 h
Listed here: items and their measured TGI.

Before answering, review these 8 worked examples.
Cc1ccc(C(=O)N/N=C(\N=Nc2ccccc2Cl)c2ccc(N(C)C)cc2)cc1; > 100 µM
CC(C)Cc1ccc(C(C)C(=O)NCc2ccc(Cn3c(=O)sn(CCCI)c3=O)cc2)cc1 (stereo not given); 2.2 µM
Cc1ccsc1C(=S)Nc1ccc(Cl)c(/C=N/OC(C)C)c1; 34.1 µM
O=c1[nH]c2cc([N+](=O)[O-])c(N/N=C/c3ccc(Cl)cc3Cl)c([N+](=O)[O-])c2[nH]1; > 100 µM
Cc1ccc(C(=O)Oc2ccc(/C=C3\CCC/C(=C\c4ccc(OC(=O)c5ccc(C)cc5)cc4)C3=O)cc2)cc1; > 100 µM
COc1ccc2c(c1)C(c1cc(OC)c3c(c1)OCO3)C1=C(COC1=O)N2 (stereo not given); > 100 µM
COc1cc(CCNC(=O)OC(C)(C)C)c2c(c1OC)SSSSS2; 10.7 µM
CC1(C)CCC(C)(C)c2cc(NC(=O)c3ccc(C(=O)O)cc3)ccc21; > 100 µM

Form field: reported TGI of CC(C)OP(=O)(OC(C)C)C(=NCCN=C(NNc1ccccc1[N+](=O)[O-])P(=O)(OC(C)C)OC(C)C)NNc1ccccc1[N+](=O)[O-]
> 100 µM

What do you have for COP(=O)(OC)[C@H](O)[C@H]1C[C@@H]1c1ccccc1 ?
> 100 µM

What do you have for CC(C(=O)n1ccnc1)N1c2ccccc2Sc2ccccc21 (stereo not given) ?
> 100 µM

What do you have for OCC1CCCC1O (stereo not given) ?
> 100 µM

What do you have for CN(C)Cc1c(C(=O)NCCOc2ccc(C(=O)NO)cc2)oc2ccccc12 ?
0.662 µM

What do you have for COC(=O)Cn1c(=O)oc2nc(-c3ccccc3)cc(C(F)(F)F)c21 ?
95.8 µM

----------
# Tested on: A549 NSCLC
# ASSAY_COMMENT: NCI tumour cell line growth inhibition, 48 h
READOUT_TYPE: TGI (µM)
The reply should be a number in µM, with the unit left off.

CN(C)CCS(=O)(=O)Nc1cc(-c2ccc3ncc(C#N)c(Nc4ccc(F)c(Cl)c4)c3c2)cnc1Cl; 4.79

// below: TGI requested for another molecule
Form field: reported TGI of CC1(C)CCCCCCCCCC2CC2CCC(C)(C)C1=O (stereo not given)
57.5

----------
# Tested on: LOX IMVI melanoma
# ASSAY_COMMENT: NCI tumour cell line growth inhibition, 48 h
Listed here: items and their measured TGI.

Before answering, review these 5 worked examples.
COc1ccc(/C=C/C(=O)c2sc(-c3cccnc3)nc2C)cc1; > 100 µM
Cc1ccccc1Nc1nc(NNC(=O)Cc2ccccc2)nc(NNC(=O)c2ccncc2)n1; > 10 µM
COc1cc(CNc2cnc3ccc(N)cc3n2)cc(OC)c1OC; > 100 µM
CN(C)C=Nc1c(I)cc(I)c(CCC(=O)O)c1I; > 100 µM
CS(=O)(=O)O[C@H]1[C@H](O)c2ccccc2[C@@H]1N=[N+]=[N-]; > 100 µM

Form field: reported TGI of O=C(c1ccccc1)c1nc2ccc(C(F)(F)F)cc2nc1N1CCN(c2ccccc2)CC1
38.4 µM

----------
# System: SW-620 colon
# ASSAY_COMMENT: NCI tumour cell line growth inhibition, 48 h
READOUT_TYPE: TGI

Before answering, review these 4 worked examples.
CN(C)CC1CCC/C(=C\c2ccccc2)C1=O (stereo not given); 3.07 µM
CC(C)(C)n1c(=O)n2n(c1=O)C1c3cccc4cccc(c34)C2C2c3cccc4cccc(c34)C1n1c(=O)n(C(C)(C)C)c(=O)n12; > 100 µM
CC1Cc2ccccc2N1C(=O)Cc1nc(N2CCOCC2)cc(=O)[nH]1 (stereo not given); > 100 µM
COc1ccc(/C=C2\CCC(CCN3CCOCC3)C2=O)cc1 (stereo not given); > 100 µM

// below: TGI requested for another molecule
Form field: reported TGI of CCOC(=O)c1sc2nc1CSc1sc(=S)sc1SCc1nc(sc1C(=O)OCC)-c1nc(c(C(=O)OCC)s1)CSc1sc(=S)sc1SCc1nc-2sc1C(=O)OCC
> 10 µM

----------
# Test system: COLO 205 colon
# ASSAY_COMMENT: NCI tumour cell line growth inhibition, 48 h
Listed here: items and their measured TGI.

Cn1c(=O)ccc2c(=O)c3ccccc3oc21; > 100 µM
CCOC(=O)/C(=C\NC(C)(C)CO)c1nc2ccccc2[nH]1; > 100 µM
COc1ccc(OC)c(/C=C/c2ccnc3ccccc23)c1; 0.863 µM
O=S(=O)(CCC[C@H]1[C@@H](CCOCc2ccccc2)C2CCCN1O2)c1ccccc1 (stereo not given in full); > 100 µM
O=C(CSSCC(=O)OCCS(=O)(=O)Nc1ccc(Br)cc1)OCCS(=O)(=O)Nc1ccc(Br)cc1; 62.2 µM

Form field: reported TGI of Cc1ccc(C(=O)Nc2ncn(C3CC(O)C(CO)O3)c(=O)n2)cc1 (stereo not given)
> 100 µM

What do you have for COc1ccc(NC(=O)c2ccc(NC3=C(Cl)C(=O)N(Cc4ccccc4)C3=O)cc2)c(OC)c1 ?
> 100 µM

----------
# System: BT-549 breast
# ASSAY_COMMENT: NCI tumour cell line growth inhibition, 48 h; in the data active = GI50 below about 0.43 µM; inactive = the rest
Residues, ends and D or L forms follow the SMILES beside them. *: point of attachment. Cbz = O=C(OCc1ccccc1)*
Answer with one of the outcomes YES = active, NO = inactive

CC(C)Cc1ccc(C(C)C(=O)NCc2ccc(Cn3c(=O)sn(CCCI)c3=O)cc2)cc1 (centres undefined); NO
CC(C)C[C@@H](C=O)NC(=O)[C@H](CC(C)C)NC(=O)[C@H](CC(C)C)NC(=O)OCc1ccccc1 (Cbz-Leu-Leu-Leu-aldehyde); YES
O=C(O)c1cn(C2CC2)c2cc(N3CCN(Cc4c(O)ccc5ccccc45)CC3)c(F)cc2c1=O; NO

How was COc1cc(CCC(=O)NC[C@@H](O)c2ccccc2)ccc1O classified in this test?
NO

What do you have for NC(=O)c1cc(Br)ccc1NC(=O)/C=C/c1ccccc1 ?
NO

What do you have for CC/C=C\C[C@H](O)C/C=C1/C(=O)C=C[C@@H]1C/C=C\CCCCO ?
NO

What do you have for Cc1ccsc1-c1ccc2c(c1)COC2(CCCN(C)C)c1ccc(F)cc1 (centres undefined) ?
NO

What do you have for NC(N)=Nc1ccc(/C=C2\C=Cc3ccccc32)cc1 ?
NO

What do you have for C/C=C(\C)C(=O)O[C@H]1C=CC(=O)O[C@H]1COC(=O)[C@H](C)O ?
NO

----------
# Test system: UACC-62 melanoma
# ASSAY_COMMENT: NCI tumour cell line growth inhibition, 48 h; in the data active = GI50 below about 0.43 µM; inactive = the rest
Answer with one of the outcomes label 1 for active, label 0 for inactive

Oc1ccccc1/C=N\NC(=S)N/N=C/c1ccccc1O; label 0

How was Cn1c(=O)c(Oc2ccc(F)cc2F)cc2cnc(NC3CCOCC3)nc21 classified in this test?
label 0

What do you have for O=c1oc2ccc(Br)cc2c(=O)n1-c1ccc(Cl)cc1F ?
label 1

What do you have for CN(C)CCOc1ccccc1NC1=C(Cl)C(=O)C(Nc2ccccc2OCCN(C)C)=C(Cl)C1=O ?
label 0

What do you have for COc1cc(/C=C/C(=O)c2c(-c3ccc(F)cc3)nc3sc(C)nn23)cc(OC)c1OC ?
label 0

----------
# System: NCI/ADR-RES ovarian
# ASSAY_COMMENT: NCI tumour cell line growth inhibition, 48 h
READOUT_TYPE: GI50

C=C1c2nc3ccccc3n2C=C(c2ccc(Cl)cc2)N1c1ccc(OCCN2CCCCC2)cc1; 2.14 µM
CC(C)Cc1ccc(C(C)C(=O)NCc2ccc(Cn3c(=O)sn(CCCI)c3=O)cc2)cc1 (stereo not given); 1.35 µM
CC(=O)N[C@@H](Cc1ccc(OP(=O)(O)O)cc1)C(=O)N[C@H]1CCC(=O)N2CCC[C@@H](C(=O)NCc3ccccc3)N2C1=O; > 25 µM
O=C1CC(N2C(=O)/C(=C/C(Cl)=C\c3ccc([N+](=O)[O-])cc3)SC2=S)C(=O)N1c1ccc(O)cc1 (stereo not given); 2.13 µM

// below: GI50 requested for another molecule
Form field: reported GI50 of NC(N)=Nc1ccc(/C=C2\C=Cc3ccccc32)cc1
4.54 µM
